Hello, the source for this data is patent US8003660B2, in case you need it.

Each entry below lists one item and its recorded Emax value.
target or system: M1 muscarinic receptor (Homo sapiens, UniProt P11229)
Construct: expressed in transfected cells; host or cells: CHO (M1-CHO)
Sequence (P11229 1-460): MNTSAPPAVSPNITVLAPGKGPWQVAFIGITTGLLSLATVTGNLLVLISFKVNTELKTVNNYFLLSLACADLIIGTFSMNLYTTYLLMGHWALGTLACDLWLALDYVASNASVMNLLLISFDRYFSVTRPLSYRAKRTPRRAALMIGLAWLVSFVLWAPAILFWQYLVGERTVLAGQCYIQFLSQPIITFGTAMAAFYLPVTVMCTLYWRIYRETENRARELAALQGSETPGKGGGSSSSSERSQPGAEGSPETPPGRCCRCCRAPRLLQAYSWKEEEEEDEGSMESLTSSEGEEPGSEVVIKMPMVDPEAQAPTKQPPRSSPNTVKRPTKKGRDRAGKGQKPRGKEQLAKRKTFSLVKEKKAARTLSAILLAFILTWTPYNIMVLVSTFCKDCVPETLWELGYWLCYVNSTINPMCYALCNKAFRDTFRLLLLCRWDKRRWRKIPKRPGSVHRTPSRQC
run description: Functional mobilization of intracellular calcium (FLIPR) in CHO cells expressing M1
Assay type: cell-based
measurement parameters: CHO; 100% = maximum response obtained with the Carbachol control; read-out: M1 Efficacy

Ask: So what's the measured Emax for this one? CC(=O)N[C@H]1CCC2(CCN(CCC(C)CCC=C(C)C)CC2)c2ccccc21 (some centres unmarked) [compound 68]
Reply: > 100%

Ask: What do you get for C[C@H](C(=O)N[C@@H]1CCC2(CCN(CCC(C)(C)C)CC2)c2cc(F)ccc21)N1CCCC1=O [compound 78] ?
Reply: 25 to 100%

Ask: Another compound: CC(C)(C)CCN1CCC2(CC[C@H](NC(=O)C3CCC(=O)N3)c3ccc(F)cc32)CC1 (some centres unmarked) [compound 103]
Reply: 25 to 100%

Ask: Consider next the compound CC(=O)N[C@H]1CCC2(CCN(CC(C)C)CC2)c2ccccc21 [compound 104] in the same way.
Reply: 25 to 100%

Ask: Same question for Cn1cc(C(=O)N[C@@H]2CCC3(CCN(CCC(C)(C)C)CC3)c3ccccc32)cn1 [compound 129] please.
Reply: < 25%

Ask: Entry CCCCN1CCC2(CC[C@H](NC(C)=O)c3ccccc32)CC1 [compound 4] please
Reply: 25 to 100%

Ask: For CC(=O)N[C@H](C)C(=O)N[C@@H]1CCC2(CCN(CCC(C)(C)C)CC2)c2ccccc21 [compound 162] then?
Reply: 25 to 100%

Ask: Thanks! And CC(=O)N[C@H]1CCC2(CCN(CC=C(C)C)CC2)c2ccccc21 [compound 150] ?
Reply: 25 to 100%

----------
target or system: M4 muscarinic receptor (Homo sapiens)
Construct: expressed in transfected cells; host or cells: CHO (M4-CHO)
Sequence (P08173 1-479): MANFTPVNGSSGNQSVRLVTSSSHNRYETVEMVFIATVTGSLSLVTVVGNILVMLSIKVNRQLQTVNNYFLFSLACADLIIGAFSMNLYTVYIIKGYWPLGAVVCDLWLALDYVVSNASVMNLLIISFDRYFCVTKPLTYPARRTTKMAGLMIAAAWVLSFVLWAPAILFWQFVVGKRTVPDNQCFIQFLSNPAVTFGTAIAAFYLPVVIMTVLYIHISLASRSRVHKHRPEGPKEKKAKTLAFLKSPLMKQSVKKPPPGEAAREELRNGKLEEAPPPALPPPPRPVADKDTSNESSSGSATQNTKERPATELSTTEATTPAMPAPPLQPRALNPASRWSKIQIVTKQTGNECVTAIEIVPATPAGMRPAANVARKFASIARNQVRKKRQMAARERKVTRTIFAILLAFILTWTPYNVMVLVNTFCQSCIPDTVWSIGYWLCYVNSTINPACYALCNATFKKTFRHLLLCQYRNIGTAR
run description: Functional mobilization of intracellular calcium (FLIPR) in CHO cells expressing M4
Assay type: cell-based
measurement parameters: CHO; 100% efficacy = maximum response obtained with the Carbachol control
measure name: Emax

Ask: Entry CC(C)(C)CCN1CCC2(CC1)CC(C(=O)O)c1ccccc12 (stereo not shown) , system M4 muscarinic receptor (Homo sapiens): what Emax was measured?
Reply: 25 to 100%
